Source of measurements: patent US9981925B2

target: His-AKT (Full Length) (Homo sapiens (Human), UniProt P31749); assay: AKT/PKB kinase assay; assay type: biochemical; settings: 160 μM ATP, 90 min at 25° C., Caliper mobility shift
Sequence (P31749 whole entry): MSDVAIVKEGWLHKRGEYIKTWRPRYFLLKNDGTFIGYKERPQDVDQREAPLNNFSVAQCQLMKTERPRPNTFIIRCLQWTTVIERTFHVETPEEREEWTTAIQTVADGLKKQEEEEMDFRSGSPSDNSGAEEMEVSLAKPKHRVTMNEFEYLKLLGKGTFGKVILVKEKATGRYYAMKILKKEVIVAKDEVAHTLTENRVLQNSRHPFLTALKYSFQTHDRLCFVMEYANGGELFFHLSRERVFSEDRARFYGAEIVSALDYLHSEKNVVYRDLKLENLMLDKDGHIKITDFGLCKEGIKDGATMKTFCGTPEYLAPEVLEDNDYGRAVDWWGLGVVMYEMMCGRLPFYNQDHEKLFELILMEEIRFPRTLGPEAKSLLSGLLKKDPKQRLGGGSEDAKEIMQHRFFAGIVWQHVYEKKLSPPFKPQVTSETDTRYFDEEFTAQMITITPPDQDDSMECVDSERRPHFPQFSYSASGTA
Let's look at some compounds and their measured IC50.

CC(C)NC[C@@H](Nc1ncnc2c(C(N)=O)ccnc12)c1ccc(F)c(C(F)(F)F)c1	101 to 500 nM
NC(=O)c1ccnc2c(N[C@@H](CN3CCC3)c3ccc(Cl)c(C(F)(F)F)c3)ncnc12	> 1000 nM
NC(=O)c1cccc2c(NC3CNCCC3c3ccc(C(F)(F)F)cc3)nnnc12 (stereo not shown)	101 to 500 nM
NC(=O)c1ccnc2c(N[C@H](CN3CC(F)C3)c3ccc(Cl)c(C(F)(F)F)c3)ncnc12	25 to 100 nM
NC(=O)c1ccnc2c(N[C@H](CN3CCC3)c3ccc(Cl)cc3)ncnc12	101 to 500 nM

Q: # IC50 lookup, item `CN(C)C[C@@H](Nc1nnnc2c(C(N)=O)cccc12)c1ccc(Cl)c(C#N)c1`
Ans: 101 to 500 nM

Q: Need IC50 of `CNC[C@@H](Nc1ncnc2c(C(N)=O)ccnc12)c1cc(F)c(OC)cc1F` , thanks.
Ans: 101 to 500 nM

Q: What value of measured IC50 is listed for `CCNC[C@@H](Nc1ncnc2c(C(N)=O)ccnc12)c1ccc(F)c(C(F)(F)F)c1` ?
Ans: 25 to 100 nM

Q: Can you look up the measured IC50 of `CCNC[C@@H](Nc1ncnc2c(C(N)=O)ccnc12)c1cc(F)cc(C(F)(F)F)c1` for me?
Ans: 101 to 500 nM

Q: Request the reported IC50 associated with `NC(=O)c1ccnc2c(N[C@H](CN3CCC3)c3ccc(OC(F)(F)F)c(Cl)c3)ncnc12`
Ans: 25 to 100 nM

Q: Which measured IC50 value corresponds to `CC(C)c1ccc([C@@H](CN2CCC2)Nc2ncnc3c(C(N)=O)ccnc23)cc1` ?
Ans: 501 to 1000 nM

----------
biological target: His-AKT (Full Length) (Homo sapiens (Human)); assay: AKT/PKB kinase assay; type: biochemical; details: 160 μM ATP, 90 min at 25° C., Caliper mobility shift
IC50 for assorted compounds

CCNC[C@@H](Nc1ncnc2c(C(N)=O)ccnc12)c1ccc(Cl)c(C(F)(F)F)c1 [Compound 33]	0.025 to 0.1 µM
CCNC[C@@H](Nc1ncnc2c(C(N)=O)ccnc12)c1cc(F)c(OC)cc1F [Compound 31]	> 1 µM

Q: Which IC50 is reported for this compound? CNC[C@@H](Nc1ncnc2c(C(N)=O)nccc12)c1ccc(Cl)c(C(F)(F)F)c1 [Compound 42]
Ans: < 0.025 µM

Q: I would be grateful if you could share the reported IC50 for CNC[C@@H](Nc1ncnc2c(C(N)=O)nccc12)c1ccc(C(C)C)cc1 [Compound 40] .
Ans: > 1 µM

Q: Param item = NC(=O)c1cccc2c(NCc3ccc(C(F)(F)F)cn3)nnnc12 [Compound 7] ; retrieve measured IC50.
Ans: > 1 µM

Q: Any idea what its IC50 is? The compound is CNC[C@@H](Nc1ncnc2c(C(N)=O)ccnc12)c1cc(F)c(F)cc1F [Compound 60]
Ans: 0.025 to 0.1 µM

Q: # query: IC50 of entry NC(=O)c1ccnc2c(N[C@H](CN3CCC3)c3ccc(Cl)c(C(F)(F)F)c3)ncnc12 [Compound 41]
Ans: < 0.025 µM

Q: Looking for the measured IC50 of CNC[C@@H](Nc1ncnc2c(C(N)=O)ccnc12)c1cccc(F)c1 [Compound 66] , can you help?
Ans: < 0.025 µM

Q: Report IC50 for CNC[C@@H](Nc1ncnc2c(C(N)=O)ccnc12)c1ccc(OC(F)(F)F)c(Cl)c1 [Compound 74] please.
Ans: 0.025 to 0.1 µM

Q: Reported IC50, compound CNC[C@@H](Nc1ncnc2c(C(N)=O)ccnc12)c1ccc(Cl)c(C(F)(F)F)c1 [Compound 72] : ____
Ans: < 0.025 µM

Q: Could you share which IC50 value was measured for NC(=O)c1cncc2c(N[C@@H](CN3CCC3)c3ccc(Cl)c(C(F)(F)F)c3)ncnc12 [Compound 19] ?
Ans: > 1 µM

Q: Any idea what IC50 was measured for CNC[C@@H](Nc1ncnc2c(C(N)=O)ccnc12)c1ccc(C(F)(F)F)c(C(F)(F)F)c1 [Compound 43] ?
Ans: < 0.025 µM

Q: Value lookup for IC50; key = CNC[C@@H](Nc1ncnc2c(C(N)=O)ccnc12)c1ccc(C(F)(F)F)c(F)c1 [Compound 26]
Ans: < 0.025 µM

Q: // returns reported IC50 for input NC(=O)c1ccnc2c(N[C@H](CN3CCC3)c3cccc(F)c3)ncnc12 [Compound 68]
Ans: 0.025 to 0.1 µM

Q: Quick one: IC50 for NC(=O)c1cccc2c(N[C@H](CN3CCC3)c3ccc(F)c(C(F)(F)F)c3)nnnc12 [Compound 12] ?
Ans: < 0.025 µM

Q: Recorded IC50 for N#Cc1cc([C@@H](CN2CCC2)Nc2nnnc3c(C(N)=O)cccc23)ccc1Cl [Compound 18] , please?
Ans: 0.101 to 0.5 µM

Q: Return reported IC50; argument: CC(C)NC[C@@H](Nc1ncnc2c(C(N)=O)ccnc12)c1ccc(Cl)c(F)c1 [Compound 54]
Ans: 0.101 to 0.5 µM
